B1: CPEB3 Ribozyme (parent)
chain: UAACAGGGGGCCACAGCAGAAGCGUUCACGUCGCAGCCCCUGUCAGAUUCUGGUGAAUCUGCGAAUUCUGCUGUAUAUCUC

# Variants of: B1
# Assay text: self-cleavage, relative activity (ratio to wild type); higher = more cleavage; in vitro, sequencing
Readout kind: self-cleavage

A15C U66C
0.29

Task item: I would be grateful if you could share the reported self-cleavage for G7C G61C .
Reply: 0.1

Task item: I would be grateful if you could share the reported self-cleavage for G9A U41A .
Reply: 0.19

Task item: I would be grateful if you could share the reported self-cleavage for U1A A28U .
Reply: 0.88

Task item: I would be grateful if you could share the reported self-cleavage for A3G G9C .
Reply: 0.6

Task item: I would be grateful if you could share the reported self-cleavage for U58A U72A .
Reply: 0.38
